Target: T1, corticotropin-releasing hormone (CRH) peptide (human and mouse, UniProt P01143 145-185 (rat entry), not fully specified)
T1 peptide: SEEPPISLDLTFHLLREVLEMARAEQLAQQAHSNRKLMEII
Test: cell-based or functional assay

Binder: PR302341-4 (antibody, human IgG1, kappa, V domains shown) VH: EVQLQQSGPELVKPGASVKMSCKASGYTFTDYFMKWVKQSHGESLEWIGVINPNNGDIFYNQKFKGKATLTVDKSSSTAFMQLNSLTSEDSAVYSCARGTDRALFAYWGQGTLVAVSA VL: DVVMTQTPLSSPVTLGQPASISCRSGQSIVHSDGNTYLEWYQQRPGQPPRLLIYKVSNRFSGVPDRFSGSGAGTDFTLKISRVEAEDLGVYYCFQGSHIPWTFGGGTKVEIKR
hCRHR1-Luc 0.5 nM CRH IC50 (nM): 0.107

Binder: PR302341-3 (antibody, human IgG1, kappa, V domains shown) VH: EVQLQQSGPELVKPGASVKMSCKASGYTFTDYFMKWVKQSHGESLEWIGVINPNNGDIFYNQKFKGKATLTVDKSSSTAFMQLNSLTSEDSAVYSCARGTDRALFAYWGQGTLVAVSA VL: DIVMTQTPLSSPVTLGQPASISCRSGQSIVHSDGNTYLEWLQQRPGQPPRLLIYKVSNRFSGVPDRFSGSGAGTDFTLKISRVEAEDVGVYYCFQGSHIPWTFGGGTKVEIKR
hCRHR1-Luc 0.5 nM CRH IC50 (nM): 0.128

Binder: PR302341-20 (antibody, human IgG1, kappa, V domains shown) VH: QVQLVQSGAEVKKPGASVKVSCKASGYTFTDYFMKWVRQAPGQRLEWMGVINPNNGDIFYNQKFKGRVTITRDTSASTAYMELSSLRSEDTAVYYCARGTDRALFAYWGQGTLVTVSS VL: DVVMTQSPLSLPVTLGQPASISCRSGQSIVHSDGNTYLEWYQQRPGQSPRLLIYKVSNRFSGVPDRFSGSGSGTDFTLKISRVEAEDLGVYYCFQGSHIPWTFGGGTKVEIKR
hCRHR1-Luc 0.5 nM CRH IC50 (nM): 0.162

Binder: PR302341-5 (antibody, human IgG1, kappa, V domains shown) VH: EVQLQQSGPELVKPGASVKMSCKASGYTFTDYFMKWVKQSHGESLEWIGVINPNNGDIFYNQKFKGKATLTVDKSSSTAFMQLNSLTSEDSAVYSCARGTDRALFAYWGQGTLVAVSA VL: DIVMTQTPLSLSVTPGQPASISCRSGQSIVHSDGNTYLEWYLQKPGQSPQLLIYKVSNRFSGVPDRFSGSGSGTDFTLKISRVEAEDVGVYYCFQGSHIPWTFGGGTKVEIKR
hCRHR1-Luc 0.5 nM CRH IC50 (nM): 0.73

Binder: PR302341-22 (antibody, human IgG1, kappa, V domains shown) VH: QVQLVQSGAEVKKPGASVKVSCKASGYTFTDYFMKWVRQAPGQGLEWMGVINPNNGDIFYNQKFKGRVTMTRDTSISTAYMELSRLRSDDTAVYYCARGTDRALFAYWGQGTLVTVSS VL: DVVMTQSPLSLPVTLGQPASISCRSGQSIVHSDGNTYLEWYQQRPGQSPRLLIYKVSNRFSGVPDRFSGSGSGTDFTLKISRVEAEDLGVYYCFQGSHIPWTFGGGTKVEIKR
hCRHR1-Luc 0.5 nM CRH IC50 (nM): 0.243
